src = ChEMBL document CHEMBL5308504

- experimental-target: Tyrosine-protein kinase ABL1 (Homo sapiens) (UniProt P00519)
- Sequence (P00519 whole entry): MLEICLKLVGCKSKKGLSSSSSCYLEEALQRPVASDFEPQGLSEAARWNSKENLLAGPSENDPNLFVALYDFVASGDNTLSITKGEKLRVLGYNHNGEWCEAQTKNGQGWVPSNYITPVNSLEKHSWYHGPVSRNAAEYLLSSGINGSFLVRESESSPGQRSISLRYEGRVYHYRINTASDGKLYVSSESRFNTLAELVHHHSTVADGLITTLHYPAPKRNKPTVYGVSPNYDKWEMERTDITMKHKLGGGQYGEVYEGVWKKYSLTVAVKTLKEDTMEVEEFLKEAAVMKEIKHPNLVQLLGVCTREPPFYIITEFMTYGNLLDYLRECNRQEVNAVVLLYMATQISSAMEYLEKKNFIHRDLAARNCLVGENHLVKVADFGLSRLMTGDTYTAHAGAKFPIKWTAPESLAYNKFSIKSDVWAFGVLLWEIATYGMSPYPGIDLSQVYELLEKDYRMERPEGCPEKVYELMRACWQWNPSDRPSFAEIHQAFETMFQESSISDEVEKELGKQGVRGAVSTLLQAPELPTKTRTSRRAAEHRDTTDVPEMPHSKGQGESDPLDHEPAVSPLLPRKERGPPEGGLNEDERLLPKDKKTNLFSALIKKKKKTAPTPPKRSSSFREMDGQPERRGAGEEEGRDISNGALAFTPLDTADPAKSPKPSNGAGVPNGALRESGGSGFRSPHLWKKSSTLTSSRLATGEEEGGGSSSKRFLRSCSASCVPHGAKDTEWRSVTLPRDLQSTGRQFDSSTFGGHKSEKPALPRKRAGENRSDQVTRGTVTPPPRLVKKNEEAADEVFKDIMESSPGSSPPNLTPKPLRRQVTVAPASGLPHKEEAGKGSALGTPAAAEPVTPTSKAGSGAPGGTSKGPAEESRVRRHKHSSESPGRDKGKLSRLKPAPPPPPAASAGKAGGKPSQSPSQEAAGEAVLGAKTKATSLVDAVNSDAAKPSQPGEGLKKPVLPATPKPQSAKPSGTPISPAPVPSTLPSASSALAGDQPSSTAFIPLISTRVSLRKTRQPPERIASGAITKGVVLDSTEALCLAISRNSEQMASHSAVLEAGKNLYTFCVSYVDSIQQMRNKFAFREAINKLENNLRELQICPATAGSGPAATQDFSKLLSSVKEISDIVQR
- condition: Compound concentration 20.0 uM, Protein concentration 2.0 uM, Result type QC Liability
- Description: Thermal Shift Assay. Domain: start/stop: S229-K512
measured-property: ΔTm (°C)
Write it as a number; the unit °C goes unstated.

Which ΔTm is listed for `Cc1cc2c(-c3ccco3)cnc(N[C@H]3CCN(C)C[C@@H]3C(=O)NC3CCCCC3)c2[nH]c1=O` ?
0.25

And the next one, `COc1cc2nc(-c3cc(F)ccc3O)nc(N[C@@H]3CNC[C@H]3C(C)(C)O)c2cc1OC` ?
2.31

`COc1nc2ccc([C@@](O)(c3ccccc3)C3CCN(C(C)=O)CC3)cc2c(Cl)c1Cc1ccc(-n2cccn2)cc1` , same question.
-0.06

Now the compound `CN(C)CCCN1c2ccccc2Sc2ccc(Cl)cc21`
0.03

Note, next up: `CN1CCC(F)(Cn2cnc(-c3ccc(F)cn3)c2-c2ccnc3[nH]ccc23)CC1`
0.05

* * *

- experimental-target: Tyrosine-protein kinase ABL1 (Homo sapiens)
- condition: Compound concentration 20.0 uM, Protein concentration 2.0 uM, Result type QC Liability
measured-property: ΔTm (°C)
Give the value, in units of °C, as a plain number.

Below, 10 compounds whose answers are already recorded.
{"columns": ["compound", "ΔTm (°C)"],
 "data": [
  ["CN1CC(=O)N(C)c2cnc(Nc3ccc(NC(=O)Nc4cccc(C(=O)O)c4)cc3)nc21", 0.56],
  ["N[C@@H](CC(=O)O)Cn1nnc(-c2ccc(Oc3ncc(Cl)cc3F)cc2)n1", 0.91],
  ["COc1cc(C(=O)NCCOCCOCCOCC(=O)N[C@H](C(=O)N2C[C@H](O)C[C@H]2C(=O)NCc2ccc(-c3scnc3C)cc2)C(C)(C)C)ccc1Nc1ncc(C(F)(F)F)c(Oc2cccc3c2C(=O)CC3)n1", -0.62],
  ["CCOC(=O)N1CCC(CN(Cc2ccc(Cl)cc2)Cc2ccc([N+](=O)[O-])s2)C1 (centres undefined)", 0.47],
  ["CCCCOc1c(C(=O)c2c(F)cc(C)cc2F)c[nH]c2nncc1-2", 0.35],
  ["Cc1cn([C@@H](C)CC#N)c(=O)c2cc(Cn3nc(C(F)F)cc3Cl)nn12", 0.12],
  ["Cc1cc2c(ncn2C2(C)CN(C(=O)c3ccn(CC4CCN([C@H]5C=CCCCC5)CC4)c3)C2)c(N)n1", 0.14],
  ["Cc1nn(-c2ccccc2)c(Nc2ccccc2C(=O)O)c1-c1cc2nccnc2c(F)c1F", -0.68],
  ["CC(C)C(=O)N1CCC(c2cn(C)c3ncc(NC(=O)c4cccc(C#N)c4)c(C(F)(F)F)c23)CC1", -0.05],
  ["Cc1cc(OC2CCS(=O)(=O)CC2)cc(C)c1-c1cccc(COc2ccc(CCC(=O)O)c(F)c2)c1", -0.51]
]}

So what does the record say about ΔTm for `CCCCCCCN(CCc1ccc(SC(C)(C)C(=O)O)cc1)C(=O)Nc1ccc(F)cc1F` ?
0.48

And then `COc1cc(N[C@@H]2CCCC[C@]2(O)C(F)(F)F)ccc1F` , what is it?
0.29

Item: `CCn1ccc(Nc2ncc3c(n2)-c2c(nn(C)c2-c2ccc(-c4cnn(C)c4)cc2Cl)CC3)n1`
3.73

Input `Cc1nc2cccnc2n2c(-c3cc([C@@]4(O)CCCOC4)ccc3Cl)nnc12`
-0.53
